Readings of Cmax for the listed compounds
- assay_comment: Cmax in rat at 10 mg/kg, po
- Type: ADME, organism-based
- Design: dose 10 mg/kg, route oral
- condition: in vivo
quantity: Cmax (µM)

| structure | endpoint_value |
| --- | --- |
| Nc1c(C(=O)c2ccc(F)cc2F)cc[n+]([O-])c1-c1ccccc1Cl | 11.9 |
| Cc1ccccc1-c1c(N)c(C(=O)c2ccc(F)cc2F)cc[n+]1[O-] | 4.7 |

====

- assay_comment: Solubility at pH 0.1
- Type: physicochemical
- condition: buffer

| structure | solubility / µg/mL |
| --- | --- |
| Cc1cccc(C)c1-c1c(N)c(C(=O)c2ccc(F)cc2F)cc[n+]1[O-] | 40 |
| COCCOc1ccc(-c2c(N)c(C(=O)c3ccc(F)cc3F)cc[n+]2[O-])c(C)c1 | 24 |
| Cc1cc(O)ccc1-c1c(N)c(C(=O)c2ccc(F)cc2F)cc[n+]1[O-] | 44 |
